- assay notes: Encapsulation of mRNA nanoparticles with lipid amines using Ribogreen assay
- Type: physicochemical
- assay conditions: CFTR mRNA nanoparticle with lipid amine
Counter-ions that a name gives are not always drawn.
Can you tell me % Encapsulation (Ribogreen) for the items I'm about to list?
Lab note: write values as number then unit, every time.

Known results for compounds:
CC(C)CCC[C@@H](C)[C@H]1CC[C@H]2[C@@H]3CC=C4C[C@@H](OC(=O)CCC(=O)N(CCCCCCCC(C)(C)N)CCC(C)(C)N)CC[C@]4(C)[C@H]3CC[C@]12C [SA164, dihydrochloride]
99.2%
CC(C)CCC[C@@H](C)[C@H]1CC[C@H]2[C@@H]3CC=C4C[C@@H](OC(=O)CCC(=O)N(CCCCCCCC(C)N)CCC(C)N)CC[C@]4(C)[C@H]3CC[C@]12C (stereo partly drawn) [SA162, dihydrochloride]
98.6%
CC[C@H](CC[C@@H](C)[C@H]1CC[C@H]2[C@@H]3CC=C4C[C@@H](OC(=O)N(CCCN)CCCCCCN)CC[C@]4(C)[C@H]3CC[C@]12C)C(C)C [SA84, dihydrochloride]
99.5%
CC(C)CCC[C@@H](C)[C@H]1CC[C@H]2[C@@H]3CC=C4C[C@@H](OC(=O)[C@H](CCCN)NCCCCCCN)CC[C@]4(C)[C@H]3CC[C@]12C.Cl.Cl.Cl [SA132]
96.8%
CC(C)CCC[C@@H](C)[C@H]1CC[C@H]2[C@@H]3CC=C4C[C@@H](OC(=O)CCCC(=O)N(CCCCCCCC(C)N)CCC(C)N)CC[C@]4(C)[C@H]3CC[C@]12C (stereo partly drawn) [SA142, dihydrochloride]
99.0%

Provide % Encapsulation (Ribogreen) for all items below, preserving their order.
1. CC(C)CCC[C@@H](C)[C@H]1CC[C@H]2[C@@H]3CC=C4C[C@@H](OC(=O)N(CCCCCCCCN(C)C)CCCN(C)C)CC[C@]4(C)[C@H]3CC[C@]12C [SA64]
2. CC(C)CCC[C@@H](C)[C@H]1CC[C@H]2[C@@H]3CC=C4C[C@@H](SSCCCCC(=O)N(CCCN)CCCCCCCCN)CC[C@]4(C)[C@H]3CC[C@]12C [SA110, dihydrochloride]
3. CCC(N)(CC)CCNCCCCN(CCC(N)(CC)CC)C(=O)O[C@H]1CC[C@@]2(C)C(=CC[C@H]3[C@@H]4CC[C@H]([C@H](C)CCCC(C)C)[C@@]4(C)CC[C@@H]32)C1.Cl.Cl.Cl [SA133]
4. CC(C)CCC[C@@H](C)[C@H]1CC[C@H]2[C@@H]3CC=C4C[C@@H](OC(=O)N(CCCCCCN)CCCCCCN)CC[C@]4(C)[C@H]3CC[C@]12C [SA81, dihydrochloride]
5. CC[C@H](CC[C@@H](C)[C@H]1CC[C@H]2[C@@H]3CC=C4C[C@@H](OC(=O)CCCCC(=O)N(CCCN)CCCCNCCCN)CC[C@]4(C)[C@H]3CC[C@]12C)C(C)C [SA90, trihydrochloride]
6. CC(C)CCC[C@@H](C)[C@H]1CC[C@H]2[C@@H]3CC=C4C[C@@H](OC(=O)CN(CCCCCCCCN)C(=O)[C@@H](N)CCCCN)CC[C@]4(C)[C@H]3CC[C@]12C.Cl.Cl.Cl [SA130]
7. CC(C)CCC[C@@H](C)[C@H]1CC[C@H]2[C@@H]3CC=C4C[C@@H](OC(=O)N(CCCCNCC(F)(F)CN)CC(F)(F)CN)CC[C@]4(C)[C@H]3CC[C@]12C [SA79, trihydrochloride]
8. CC[C@H](CC[C@@H](C)[C@H]1CC[C@H]2[C@@H]3CC=C4C[C@@H](OC(=O)N(CCCCCCCC(C)N)CCC(C)N)CC[C@]4(C)[C@H]3CC[C@]12C)C(C)C (stereo partly drawn) [SA144, dihydrochloride]

## Result
1. 99.1%
2. 98.8%
3. 99.4%
4. 99.4%
5. 98.1%
6. 95.7%
7. 97.9%
8. 98.8%

// for each compound in input: emit % Encapsulation (Ribogreen)
1. CC(C)CCC[C@@H](C)[C@H]1CC[C@H]2[C@@H]3CC=C4C[C@@H](OC(=O)N(CCCCNCC(C)(C)CN)CC(C)(C)CN)CC[C@]4(C)[C@H]3CC[C@]12C [SA77, trihydrochloride]
2. CC[C@H](CC[C@@H](C)[C@H]1CC[C@H]2[C@@H]3CC=C4C[C@@H](OC(=O)CCCC(=O)N(CCC(C)N)CCC(C)N)CC[C@]4(C)[C@H]3CC[C@]12C)C(C)C (stereo partly drawn) [SA156, dihydrochloride]
3. CC(C)CCC[C@@H](C)[C@H]1CC[C@H]2[C@@H]3CC=C4C[C@@H](OC(=O)N(CCCCNCCC(C)(C)N)CCC(C)(C)N)CC[C@]4(C)[C@H]3CC[C@]12C [SA78, trihydrochloride]
4. CC(C)CCC[C@@H](C)[C@H]1CC[C@H]2[C@@H]3CC=C4C[C@@H](SSCCC(=O)N(CCC(C)N)CCC(C)N)CC[C@]4(C)[C@H]3CC[C@]12C (stereo partly drawn) [SA173, dihydrochloride]

## Result
["100%", "99.6%", "100%", "100%"]

## Task // query % Encapsulation (Ribogreen) value for entry CC(C)CCC[C@@H](C)[C@H]1CC[C@H]2[C@@H]3CC=C4C[C@@H](OC(=O)N(CCCCNCCC(C)N)CCC(C)N)CC[C@]4(C)[C@H]3CC[C@]12C (stereo partly drawn) [SA76, trihydrochloride]
## Result 100%

----------
- assay notes: Encapsulation of mRNA nanoparticles with lipid amines using Ribogreen assay
- Type: physicochemical
- assay conditions: Luciferase mRNA nanoparticle modified with lipid amine
Structures can show the parent of a compound that is named as a salt.
experimental endpoint: % Encapsulation (Ribogreen) (%)
Answers are plain numbers, in %.

CC[C@H](CC[C@@H](C)[C@H]1CC[C@H]2[C@@H]3CC=C4C[C@@H](OC(=O)CCC(=O)N(CCCC(C)(C)N)CCC(C)(C)N)CC[C@]4(C)[C@H]3CC[C@]12C)C(C)C [SA167, dihydrochloride]
98.7

Would you kindly look at the next entry?
## Task Any idea what % Encapsulation (Ribogreen) was measured for CCC(N)(CC)CCNCCCCN(CCC(N)(CC)CC)C(=O)CCCC(=O)O[C@H]1CC[C@@]2(C)C(=CC[C@H]3[C@@H]4CC[C@H]([C@H](C)CCCC(C)C)[C@@]4(C)CC[C@@H]32)C1 [SA185, trihydrochloride] ?
## Result 99.4

----------
- Test system: HeLa cells
- assay notes: Luciferase Protein Expression Assay in HeLa Cells
- Format: cell-based, Human
- assay conditions: LNPs encapsulating Luciferase mRNA, 25 ng per well, N=4 wells; 5 h serum-free then 24 h; ONE-Glo
Where a name gives a salt, the structure may show the parent alone.
For each record, write down the corresponding Average Relative Light Units ± Standard Deviation.
One number for each entry, in Relative Light Units.

Observe how each entry below is paired with its result.
CCC(N)(CC)CCNCCCCN(CCC(N)(CC)CC)C(=O)O[C@H]1CC[C@@]2(C)C(=CC[C@H]3[C@@H]4CC[C@H]([C@H](C)CCCC(C)C)[C@@]4(C)CC[C@@H]32)C1.Cl.Cl.Cl [SA133]
26696.2
CCC(N)(CC)CCNCCCCN(CCC(N)(CC)CC)C(=O)CCCC(=O)O[C@H]1CC[C@@]2(C)C(=CC[C@H]3[C@@H]4CC[C@H]([C@H](C)CCCC(C)C)[C@@]4(C)CC[C@@H]32)C1 [SA185, trihydrochloride]
36168.3

Could you report Average Relative Light Units ± Standard Deviation for every entry in the following list?
1. CC[C@H](CC[C@@H](C)[C@H]1CC[C@H]2[C@@H]3CC=C4C[C@@H](OC(=O)CN(CCCN)CCCCNCCCN)CC[C@]4(C)[C@H]3CC[C@]12C)C(C)C [SA119]
2. CC(C)CCC[C@@H](C)[C@H]1CC[C@H]2[C@@H]3CC=C4C[C@@H](SSCCC(=O)N(CCCN)CCCCCCCCN)CC[C@]4(C)[C@H]3CC[C@]12C [SA97, dihydrochloride]
3. CC(C)CCC[C@@H](C)[C@H]1CC[C@H]2[C@@H]3CC=C4C[C@@H](OC(=O)CCCC(=O)N(CCCN)CCCCCCCCN)CC[C@]4(C)[C@H]3CC[C@]12C.Cl.Cl [SA134]

## Result
18979.6
13144.4
29194.3

For each of the compounds below, note its Average Relative Light Units ± Standard Deviation.
1. CC[C@H](CC[C@@H](C)[C@H]1CC[C@H]2[C@@H]3CC=C4C[C@@H](OC(=O)N(CCCN)CCCCCCN)CC[C@]4(C)[C@H]3CC[C@]12C)C(C)C [SA84, dihydrochloride]
2. CC(C)CCC[C@@H](C)[C@H]1CC[C@H]2[C@@H]3CC=C4C[C@@H](SSCCC(=O)N(CCCCNCCC(C)N)CCC(C)N)CC[C@]4(C)[C@H]3CC[C@]12C (some centres unmarked) [SA171, trihydrochloride]
3. CC(C)CCC[C@@H](C)[C@H]1CC[C@H]2[C@@H]3CC=C4C[C@@H](OC(=O)CCC(=O)N(CCCCNCCC(C)N)CCC(C)N)CC[C@]4(C)[C@H]3CC[C@]12C (some centres unmarked) [SA160, trihydrochloride]

## Result
1. 29639.9
2. 22232.4
3. 19694.4
